So I've got a bunch of compounds here, and I need their melting point values.

Please review the following examples before continuing.
[[record]]
compound = "CCn1cc(C(=O)O)c(=O)c2cc(F)c(N3CCN(CC(=NO)c4ccccc4)CC3)cc21"
observed_value = "203 °C (dec.)"

[[record]]
compound = "CCn1cc(C(=O)O)c(=O)c2cc(F)c(N3CCN(CC(=NOC)c4ccc(OC)cc4)CC3)cc21"
observed_value = "165 °C (dec.)"

[[record]]
compound = "CCn1cc(C(=O)O)c(=O)c2cc(F)c(N3CCN(C(=N)C(O)c4ccc(F)cc4)CC3)c(F)c21 (stereo not drawn)"
observed_value = "201 °C (dec.)"


Give measured melting point for every item shown.
1. CCn1cc(C(=O)O)c(=O)c2cc(F)c(N3CCN(CC(=O)c4ccccc4)CC3)c(F)c21
2. CCn1cc(C(=O)O)c(=O)c2cc(F)c(N3CCN(CC(=NO)c4ccc(OC)cc4)CC3)cc21
3. COc1ccc(C(=O)CN2CCN(c3cc4c(cc3F)c(=O)c(C(=O)O)cn4-c3ccc(N)cc3F)CC2)cc1
4. CCn1cc(C(=O)O)c(=O)c2cc(F)c(N3CCN(CC(=NO)c4ccc(OC)cc4)CC3)c(F)c21
5. CCn1cc(C(=O)O)c(=O)c2cc(F)c(N3CCN(CC(C)NN)CC3)cc21 (stereo not drawn)
6. CCn1cc(C(=O)O)c(=O)c2cc(F)c(N3CCN(CC(C)=NO)CC3)cc21

# output
167 °C (dec.)
221 °C (dec.)
143 °C (dec.)
176 °C (dec.)
208 °C (dec.)
218 °C (dec.)

###

Reported MIC for target or system Proteus vulgaris, by entry.
Give bare numbers, in µM.

Use these answered entries as a reference point.
[[record]]
molecule = "CCn1cc(C(=O)O)c(=O)c2cc(F)c(N3CCN(CC(=O)c4ccccc4)CC3)c(F)c21"
observed_value = 0.22

[[record]]
molecule = "CC1COc2c(N3CCN(C)CC3)c(F)cc3c(=O)c(C(=O)O)cn1c23 (centres unmarked) [Ofloxacin, reference compound]"
observed_value = 0.069

[[record]]
molecule = "CCn1cc(C(=O)O)c(=O)c2cc(F)c(N3CCNCC3)cc21 [Norfloxacin, reference compound]"
observed_value = 0.16

[[record]]
molecule = "CCn1cc(C(=O)O)c(=O)c2cc(F)c(N3CCN(CC(C)NN)CC3)cc21 (centres unmarked)"
observed_value = 2.01

[[record]]
molecule = "CCn1cc(C(=O)O)c(=O)c2cc(F)c(N3CCN(CC(C)=NO)CC3)cc21"
observed_value = 2


Give me MIC for each of these molecules, listed below.
1. CCn1cc(C(=O)O)c(=O)c2cc(F)c(N3CCN(CC(=NO)c4ccc(OC)cc4)CC3)cc21
2. CCn1cc(C(=O)O)c(=O)c2cc(F)c(N3CCN(CC(=NO)c4ccccc4)CC3)cc21
3. COc1ccc(C(=O)CN2CCN(c3cc4c(cc3F)c(=O)c(C(=O)O)cn4-c3ccc(N)cc3F)CC2)cc1
4. CCn1cc(C(=O)O)c(=O)c2cc(F)c(N3CCN(CC(=NOC)c4ccc(OC)cc4)CC3)cc21
5. CCn1cc(C(=O)O)c(=O)c2cc(F)c(N3CCN(CC(=NO)c4ccc(OC)cc4)CC3)c(F)c21

# output
1: 3.24; 2: 3.45; 3: 18.2; 4: 6.31; 5: 0.4

Data provenance is patent US6492373B2.
